The values you see were collected from PubChem BioAssay AID2013.

# assay_system: G-protein coupled receptor 55 (Homo sapiens) (UniProt Q9Y2T6)
# Sequence (Q9Y2T6 whole entry, looked up): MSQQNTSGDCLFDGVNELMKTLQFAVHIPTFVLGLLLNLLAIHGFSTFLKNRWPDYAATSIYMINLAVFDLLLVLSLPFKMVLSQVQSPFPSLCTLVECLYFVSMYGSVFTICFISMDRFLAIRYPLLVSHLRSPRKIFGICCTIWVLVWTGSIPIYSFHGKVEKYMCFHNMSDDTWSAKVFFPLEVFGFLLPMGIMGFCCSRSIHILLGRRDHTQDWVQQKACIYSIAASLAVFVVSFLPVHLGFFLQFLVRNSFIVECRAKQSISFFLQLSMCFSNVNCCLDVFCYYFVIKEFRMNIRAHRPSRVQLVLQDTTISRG
# protocol_text: GPR55 antagonists blocking LPI-driven arrestin recruitment, primary screen, imaging, U2OS, beta-arrestin-GFP, LPI agonist (AID 2013);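 also: U2OS cells stably carrying GPR55 and arrestin-GFP stimulated by 5 µM LPI near EC80; imaged beta-arrestin-GFP aggregate spots per cell after agonist stimulation; plate controls were LPI-stimulated DMSO wells for no effect and DMSO wells without LPI for full effect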
# conditions: U2OS GPR55 beta-arrestin-GFP translocation imaging, LPI antagonism; at 10 µM
The campaign covered roughly 290,000 compounds. About 370 (0.13%) were called active.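 The calls were made as follows: active = spots per cell inhibited over 60%, with over 100 cells counted and total cytoplasm intensity under 500,000; inconclusive = wells with under 100 cells, flagged as likely toxic; inactive = the rest.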 The full list was thinned out, with actives kept by preference. Potency and affinity values are given separately.
Possible outcomes: 1.0 = active, 0.0 = inactive

# molecule, discrete_label
records = [
    ("CN(C)CCCN(C(=O)CCc1ccccc1)c1nc2ccc(Cl)cc2s1", 1.0),
    ("CN(C)CCCN(C(=O)CCc1ccccc1)c1nc2ccc(Br)cc2s1", 0.0),
    ("CCOC(=O)CC1C(=O)NCCN1S(=O)(=O)c1ccc(C)cc1 (stereo unspecified)", 0.0),
    ("O=C1NN(c2ccccc2)C(=O)/C1=C\\c1ccccc1OCC(=O)N1CCOCC1", 0.0),
    ("COc1cc(/C=C2/C(=O)NN(c3ccc(C)c(Cl)c3)C2=O)cc([N+](=O)[O-])c1O", 0.0),
    ("CC(=O)O[C@@H]1[C@H]2[C@@H](C[C@@H](C)[C@@H]3CCC(=O)[C@@]13C)OC(=O)[C@@H]2C", 0.0),
    ("O=C(O)COc1ccccc1/C=C1\\SC(=Nc2ccc(F)cc2)N(c2ccc(F)cc2)C1=O", 0.0),
    ("O=C(c1ccco1)N(CC1CCCO1)c1nc(-c2ccccc2)cs1 (stereo unspecified)", 0.0),
    ("Cc1ccc(CNc2nc(C)cs2)cc1", 0.0),
    ("CCC(=O)N1c2ccc(S(=O)(=O)NCCc3ccc(OC)c(OC)c3)cc2CC1C (stereo unspecified)", 0.0),
    ("CCOC(=O)CC1C(=O)NCCN1c1nc2ccc(C)cn2c(=O)c1/C=C1\\SC(=S)N(C(C)CC)C1=O (stereo unspecified)", 1.0),
    ("CCCN(CC1CC1)C(=O)COC(=O)c1ccc(CNS(=O)(=O)c2ccc(F)c(Cl)c2)cc1", 0.0),
    ("Cc1ccc(NC(=O)CN(C)C(=O)CCOc2cccc(C)c2)cc1", 0.0),
    ("CCOc1ccc(CN2CCNC(=O)C2CC(=O)NCc2csc(C)n2)cc1 (stereo unspecified)", 0.0),
    ("CCNc1nc2nc3ccc(C)cn3c(=O)c2cc1C(=O)NCC1CCCO1 (stereo unspecified)", 0.0),
    ("Cc1cc2c(cc1S(=O)(=O)Nc1ccc(F)cc1)n(C)c(=O)c(=O)n2C", 0.0),
    ("C[C@@H]1C[C@@H]2OC(=O)[C@]3(C)[C@H]2[C@@H](OC3(C)O)[C@]2(C)C(=O)C=C[C@H]12 (stereo partly specified)", 0.0),
    ("Cc1ccc(OCCOc2cccc(Br)c2)c([N+](=O)[O-])n1", 0.0),
    ("CC/C(=C/c1sc2ccc(C)cc2[n+]1CCO)SC", 0.0),
    ("CCCN1C(=O)/C(=C/c2c(N3CCNC(=O)C3CC(=O)OCC)nc3c(C)cccn3c2=O)SC1=S (stereo unspecified)", 1.0),
    ("CCCN1C(=O)/C(=C/c2c(N3CCNC(=O)C3CC(=O)OC)nc3c(C)cccn3c2=O)SC1=S (stereo unspecified)", 0.0),
]
